test system: human PAC1 (Homo sapiens, UniProt P41586)
Sequence (P41586 21-468): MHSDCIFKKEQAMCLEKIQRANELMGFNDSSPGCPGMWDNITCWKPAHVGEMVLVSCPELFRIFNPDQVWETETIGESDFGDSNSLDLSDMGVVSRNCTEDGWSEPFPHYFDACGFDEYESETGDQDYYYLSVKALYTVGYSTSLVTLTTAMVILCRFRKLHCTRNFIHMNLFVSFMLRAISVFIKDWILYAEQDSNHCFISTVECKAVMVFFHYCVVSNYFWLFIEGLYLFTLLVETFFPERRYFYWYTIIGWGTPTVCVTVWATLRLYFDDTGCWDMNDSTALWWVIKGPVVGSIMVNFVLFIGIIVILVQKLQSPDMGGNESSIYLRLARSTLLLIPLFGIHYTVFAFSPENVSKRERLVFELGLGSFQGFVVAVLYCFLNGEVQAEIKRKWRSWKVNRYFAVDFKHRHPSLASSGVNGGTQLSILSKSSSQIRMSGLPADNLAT
procedure text: DiscoveRx cAMP in vitro potency, CHO-PO cells transiently transfected with human PAC1 receptor
Assay type: cell-based
Design: expressed in transfected cells; host or cells: CHO-PO, transient (Lipofectamine)
pEC50: −log10 of the molar value. Where no end group is shown, it is not given here.
recorded endpoint: pEC50

Value of pEC50 reported for the sequence HSDVVFTDNYTRLRKQVAAKKYLQSIKNKRYGGPSSGAPPPS [Agonist P53] is < 6.00
